Origin of values: BigSolDB 2.1

settings: in ethyl acetate, 278.15 K
Test readout: solubility (mole fraction)
Answer field: number only, no words.

Task item: Complete the entry with solubility (mole fraction) for CCCSc1nc(N[C@@H]2C[C@H]2c2ccc(F)c(F)c2)c2nnn([C@@H]3C[C@H](OCCO)[C@@H](O)[C@H]3O)c2n1
Reply: 0.00504

###

details: in n-propanol, 283.15 K
Test readout: solubility (mole fraction)
Just the number, please.

Task item: Recall and state the measured solubility (mole fraction) for CCCSc1nc(N[C@@H]2C[C@H]2c2ccc(F)c(F)c2)c2nnn([C@@H]3C[C@H](OCCO)[C@@H](O)[C@H]3O)c2n1 .
Reply: 0.00389

###

settings: in acetonitrile, 303.15 K
Test readout: solubility (mole fraction)
// return just the number, without any unit appended

Task item: Report solubility (mole fraction), nothing else, for this compound: CCCSc1nc(N[C@@H]2C[C@H]2c2ccc(F)c(F)c2)c2nnn([C@@H]3C[C@H](OCCO)[C@@H](O)[C@H]3O)c2n1
Reply: 0.00309

###

settings: in ethanol, 288.15 K
Test readout: solubility (mole fraction)
Give the value as a plain number.

Task item: Read the entry CCCSc1nc(N[C@@H]2C[C@H]2c2ccc(F)c(F)c2)c2nnn([C@@H]3C[C@H](OCCO)[C@@H](O)[C@H]3O)c2n1 and write its reported solubility (mole fraction).
Reply: 0.00625

###

details: in ethyl acetate, 283.15 K
Test readout: solubility (mole fraction)
Hey, just send me the number, nothing else.

Task item: Provide one value: measured solubility (mole fraction) of CCCSc1nc(N[C@@H]2C[C@H]2c2ccc(F)c(F)c2)c2nnn([C@@H]3C[C@H](OCCO)[C@@H](O)[C@H]3O)c2n1
Reply: 0.00608

###

settings: in n-butanol, 278.15 K
Test readout: solubility (mole fraction)

Task item: Tell me measured solubility (mole fraction) for CCCSc1nc(N[C@@H]2C[C@H]2c2ccc(F)c(F)c2)c2nnn([C@@H]3C[C@H](OCCO)[C@@H](O)[C@H]3O)c2n1 please.
Reply: 0.00363

###

conditions: in n-octanol, 288.15 K
Test readout: solubility (mole fraction)
Write the number on its own, no unit after it.

Task item: Answer with reported solubility (mole fraction) of CCCSc1nc(N[C@@H]2C[C@H]2c2ccc(F)c(F)c2)c2nnn([C@@H]3C[C@H](OCCO)[C@@H](O)[C@H]3O)c2n1
Reply: 0.00292

###

settings: in 2-butanone, 273.15 K
Test readout: solubility (mole fraction)
Reply with just the number.

Task item: For CCCSc1nc(N[C@@H]2C[C@H]2c2ccc(F)c(F)c2)c2nnn([C@@H]3C[C@H](OCCO)[C@@H](O)[C@H]3O)c2n1 , write its solubility (mole fraction).
Reply: 0.0218

###

conditions: in isopropanol, 298.15 K
Test readout: solubility (mole fraction)
# answer = number (no unit)

Task item: Provide only the value of recorded solubility (mole fraction) for CCCSc1nc(N[C@@H]2C[C@H]2c2ccc(F)c(F)c2)c2nnn([C@@H]3C[C@H](OCCO)[C@@H](O)[C@H]3O)c2n1
Reply: 0.00446

###

details: in 2-butanone, 283.15 K
Test readout: solubility (mole fraction)

Task item: Specify measured solubility (mole fraction) for CCCSc1nc(N[C@@H]2C[C@H]2c2ccc(F)c(F)c2)c2nnn([C@@H]3C[C@H](OCCO)[C@@H](O)[C@H]3O)c2n1 .
Reply: 0.0321

###

settings: in isobutanol, 283.15 K
Test readout: solubility (mole fraction)

Task item: Look up solubility (mole fraction) of CCCSc1nc(N[C@@H]2C[C@H]2c2ccc(F)c(F)c2)c2nnn([C@@H]3C[C@H](OCCO)[C@@H](O)[C@H]3O)c2n1 and report it.
Reply: 0.00209

###

conditions: in methanol, 298.15 K
Test readout: solubility (mole fraction)
API note: the answer field is a bare number with no unit suffix.

Task item: Return solubility (mole fraction) (reported value) for this molecule: CCCSc1nc(N[C@@H]2C[C@H]2c2ccc(F)c(F)c2)c2nnn([C@@H]3C[C@H](OCCO)[C@@H](O)[C@H]3O)c2n1
Reply: 0.014

###

conditions: in ethyl acetate, 273.15 K
Test readout: solubility (mole fraction)
Lab note: jot the number down without any unit.

Task item: Specify solubility (mole fraction) for CCCSc1nc(N[C@@H]2C[C@H]2c2ccc(F)c(F)c2)c2nnn([C@@H]3C[C@H](OCCO)[C@@H](O)[C@H]3O)c2n1 and stop.
Reply: 0.00409

###

conditions: in isopropanol, 288.15 K
Test readout: solubility (mole fraction)
Just the number, please.

Task item: // Input: CCCSc1nc(N[C@@H]2C[C@H]2c2ccc(F)c(F)c2)c2nnn([C@@H]3C[C@H](OCCO)[C@@H](O)[C@H]3O)c2n1 . Output its solubility (mole fraction) only.
Reply: 0.00364

###

conditions: in n-butanol, 308.15 K
Test readout: solubility (mole fraction)

Task item: Note solubility (mole fraction) for the molecule shown: CCCSc1nc(N[C@@H]2C[C@H]2c2ccc(F)c(F)c2)c2nnn([C@@H]3C[C@H](OCCO)[C@@H](O)[C@H]3O)c2n1
Reply: 0.0103

###

conditions: in cyclohexanone, 273.15 K
Test readout: solubility (mole fraction)
Form: value (number only, do not type unit).

Task item: Indicate its recorded solubility (mole fraction); the compound in question is CCCSc1nc(N[C@@H]2C[C@H]2c2ccc(F)c(F)c2)c2nnn([C@@H]3C[C@H](OCCO)[C@@H](O)[C@H]3O)c2n1
Reply: 0.0265

###

settings: in n-propanol, 293.15 K
Test readout: solubility (mole fraction)

Task item: Supply recorded solubility (mole fraction) for CCCSc1nc(N[C@@H]2C[C@H]2c2ccc(F)c(F)c2)c2nnn([C@@H]3C[C@H](OCCO)[C@@H](O)[C@H]3O)c2n1 here.
Reply: 0.00535

###

details: in cyclohexanone, 313.15 K
Test readout: solubility (mole fraction)
In your answer, state the number alone without any accompanying words.

Task item: Give recorded solubility (mole fraction). CCCSc1nc(N[C@@H]2C[C@H]2c2ccc(F)c(F)c2)c2nnn([C@@H]3C[C@H](OCCO)[C@@H](O)[C@H]3O)c2n1
Reply: 0.0832

###

settings: in ethyl acetate, 293.15 K
Test readout: solubility (mole fraction)
Give only the figure.

Task item: Please supply the value of reported solubility (mole fraction) for the item CCCSc1nc(N[C@@H]2C[C@H]2c2ccc(F)c(F)c2)c2nnn([C@@H]3C[C@H](OCCO)[C@@H](O)[C@H]3O)c2n1
Reply: 0.00855

###

conditions: in ethyl acetate, 298.15 K
Test readout: solubility (mole fraction)
Response field accepts a number only; no unit should be typed.

Task item: # return recorded solubility (mole fraction) for input CCCSc1nc(N[C@@H]2C[C@H]2c2ccc(F)c(F)c2)c2nnn([C@@H]3C[C@H](OCCO)[C@@H](O)[C@H]3O)c2n1
Reply: 0.0101

###

conditions: in n-propanol, 278.15 K
Test readout: solubility (mole fraction)
# print the numeric value only

Task item: Indicate its recorded solubility (mole fraction); the molecule in question is CCCSc1nc(N[C@@H]2C[C@H]2c2ccc(F)c(F)c2)c2nnn([C@@H]3C[C@H](OCCO)[C@@H](O)[C@H]3O)c2n1
Reply: 0.00327

###

settings: in n-octanol, 273.15 K
Test readout: solubility (mole fraction)
No unit in the answer, please; the number alone is enough.

Task item: Please report the measured solubility (mole fraction) for CCCSc1nc(N[C@@H]2C[C@H]2c2ccc(F)c(F)c2)c2nnn([C@@H]3C[C@H](OCCO)[C@@H](O)[C@H]3O)c2n1
Reply: 0.0021

###

settings: in n-propanol, 288.15 K
Test readout: solubility (mole fraction)
Hey, just send me the number, nothing else.

Task item: Give reported solubility (mole fraction) value for CCCSc1nc(N[C@@H]2C[C@H]2c2ccc(F)c(F)c2)c2nnn([C@@H]3C[C@H](OCCO)[C@@H](O)[C@H]3O)c2n1
Reply: 0.00462

###

details: in cyclohexanone, 283.15 K
Test readout: solubility (mole fraction)
Output: the number by itself.

Task item: Please report the measured solubility (mole fraction) for CCCSc1nc(N[C@@H]2C[C@H]2c2ccc(F)c(F)c2)c2nnn([C@@H]3C[C@H](OCCO)[C@@H](O)[C@H]3O)c2n1
Reply: 0.0374

###

details: in ethyl acetate, 303.15 K
Test readout: solubility (mole fraction)

Task item: Give the value of solubility (mole fraction) reported for the following: CCCSc1nc(N[C@@H]2C[C@H]2c2ccc(F)c(F)c2)c2nnn([C@@H]3C[C@H](OCCO)[C@@H](O)[C@H]3O)c2n1
Reply: 0.0118

###

conditions: in isobutanol, 308.15 K
Test readout: solubility (mole fraction)
The answer should be written as a number, with no unit following it.

Task item: Input CCCSc1nc(N[C@@H]2C[C@H]2c2ccc(F)c(F)c2)c2nnn([C@@H]3C[C@H](OCCO)[C@@H](O)[C@H]3O)c2n1 , output reported solubility (mole fraction).
Reply: 0.00425
